System: RKO colorectal cells
Assay: Dose-response compound screen in RKO cells (Western blot, indicators of CKIα inhibition)
Type: cell-based
Conditions: 16 hours at 37° C., 0.167-1.5 μM or 0.11-1 μM, ImageJ, 1 = mock (DMSO)-treated cells
Let's look at some compounds and their measured H2AX phosphorylation (γH2AX, relative signal intensity).
// no unit string in output, number only

| smiles structure | measured value |
| --- | --- |
| Cn1ncc(-c2cc(O)nc(N[C@H]3CC[C@H](N)CC3)n2)c1CC1CC1 | 1 |
| Cc1ccnn1[C@H]1CC[C@H](Nc2ncc(Cl)c(-c3cnn(C)c3CC3CC3)n2)CC1 | 1 |
| Cn1ncc(-c2cc(N[C@H]3CC[C@H](N)CC3)ncn2)c1CC1CC1 | 1 |
| Cn1ncc(-c2cccc(N[C@H]3CC[C@H](N)CC3)n2)c1CC1CC1 | 1 |
| Cn1ncc(-c2cc(N[C@H]3CC[C@H](N)CC3)ncc2Cl)c1CC1CC1 | 20 |

Endpoint output: H2AX phosphorylation (γH2AX, relative signal intensity) of "Cn1ncc(-c2cc(N[C@H]3CC[C@H](N)CC3)nc(N)n2)c1CC1CC1" . Value?
1
